- method description: Identification threshold values (cts) of sweeteners (triangle test) and comparison with sucrose
- Set-up: species or system persons
- condition notes: cts, suc / cts, compound; sweetening power relative to sucrose, molar
Residues, ends and D or L forms follow the SMILES beside them.
Provide the recorded f suc, mol (cts) for the entries that follow.
Give bare numbers.

// solved cases for f suc, mol (cts) follow
[
  {
    "compound": "O=C1NS(=O)(=O)c2ccccc21.[Na] [Sodium Saccharin]",
    "f suc, mol (cts)": 489
  },
  {
    "compound": "O=S(=O)(O)NC1CCCCC1 [Cyclamate]",
    "f suc, mol (cts)": 5.5
  }
]

// for each compound in input: emit f suc, mol (cts)
1. OC[C@H]1O[C@@](CO)(O[C@H]2O[C@H](CO)[C@@H](O)[C@H](O)[C@H]2O)[C@@H](O)[C@@H]1O
2. CCOc1ccc(NC(N)=O)cc1
3. COC(=O)[C@H](Cc1ccccc1)NC(=O)[C@@H](N)CC(=O)O [Aspartame] (H-Asp-Phe-OMe)

1. 1
2. 489
3. 275

---

- method description: in vivo
- condition notes: mouse, ip
assay metric: LD50

Given the entry `NC(=O)c1c(Br)cc(Br)c(CCC(=O)O)c1Br` , report its measured LD50.
~6000 mg/kg

---

- method description: Degree of sweetening compared with 5% sucrose solution (taste test)
- Parameters: species or system healthy volunteers
- condition notes: times the sweetening power of sucrose (sucrose = 1), average of 3 taste tests
Exercise: for every item that follows, state its recorded Degree of Sweetening.

Field: example entries. Status: answers known.
[
  {
    "compound": "NC(=O)c1c(Br)cc(Br)c(CCC(=O)O)c1Br [A]",
    "assay result": "6000-7000"
  },
  {
    "compound": "O=C1NS(=O)(=O)c2ccccc21.[Na] [Sodium Saccharin]",
    "assay result": 400
  },
  {
    "compound": "O=S(=O)(O)NC1CCCCC1 [Cyclamate]",
    "assay result": "< 100"
  }
]

Attention now shifts to the item below.
Using the record for OC[C@H]1O[C@@](CO)(O[C@H]2O[C@H](CO)[C@@H](O)[C@H](O)[C@H]2O)[C@@H](O)[C@@H]1O [Sucrose] , report its Degree of Sweetening.
1

---

Answer each item with its documented Identification Threshold Values (cts).
- method description: Identification threshold values (cts) of sweeteners (triangle test) and comparison with sucrose
- Design: species or system persons
- condition notes: tap water, pH 6-7 if necessary with NaOH; 5 persons, triangle test, 1 ml samples

Provide Identification Threshold Values (cts) for all items below, preserving their order.
1. NC(=O)c1c(Cl)cc(Cl)c(CCC(=O)O)c1Cl
2. CCOc1ccc(NC(N)=O)cc1
3. O=S(=O)(O)NC1CCCCC1 [Cyclamate]
4. NC(=O)c1c(I)cc(I)c(OCC(=O)O)c1I

2.5 to 4.0 µmol/L
15 to 30 µmol/L
1000 to 3000 µmol/L
15 to 25 µmol/L

---

- method description: Identification threshold values (cts) of sweeteners (triangle test) and comparison with sucrose
- Design: species or system persons
- condition notes: tap water, pH 6-7 if necessary with NaOH; 5 persons, triangle test, 1 ml samples
- Protocol: These sensory investigations were conducted by 5 persons; all samples were encoded by a person not participating in the test. […] Consecutive samples of 1 ml were consumed. The approximate concentration values determined in a preliminary test were inserted, in the main experiment, in the middle of a dilution series. All solutions of a compound were encoded with two water samples (triangle test). […]
Residues, ends and D or L forms follow the SMILES beside them.
Would you kindly list Identification Threshold Values (cts) for each of these molecules?

Examples with answers:
[
  {
    "molecule": "COC(=O)[C@H](Cc1ccccc1)NC(=O)[C@@H](N)CC(=O)O [Aspartame] (H-Asp-Phe-OMe)",
    "assay metric": "Identification Threshold Values (cts)",
    "assay result": "20 to 60 µmol/L"
  },
  {
    "molecule": "O=C1NS(=O)(=O)c2ccccc21.[Na] [Sodium Saccharin]",
    "assay metric": "Identification Threshold Values (cts)",
    "assay result": "15 to 30 µmol/L"
  },
  {
    "molecule": "NC(=O)c1c(I)cc(I)c(CCC(=O)O)c1I",
    "assay metric": "Identification Threshold Values (cts)",
    "assay result": "1.0 to 2.0 µmol/L"
  }
]

For the 2 molecules below, give their Identification Threshold Values (cts) values.
1. NC(=O)c1c(Br)cc(Br)c(CCC(=O)O)c1Br
2. OC[C@H]1O[C@@](CO)(O[C@H]2O[C@H](CO)[C@@H](O)[C@H](O)[C@H]2O)[C@@H](O)[C@@H]1O

1: 0.6 to 1.4 µmol/L; 2: 10000 to 12000 µmol/L

Data credit: patent US4522839A
